pIC50: −log10 of the molar value.
Literature survey of pIC50 (system: IRAK1 (Homo sapiens)).

Some solved cases for reference:
COMPOUND	RECORDED ENDPOINT	EXPERIMENTAL RESULT
Cn1cc(-c2cccc(-c3ncc(-c4cnn(C)c4)c(NCC4CCN(S(C)(=O)=O)C4)n3)c2)cn1 (stereo not drawn)	pIC50	6.00 to 7.00
FC(F)c1ccc2ncc(-c3cccc(N[C@H]4CNC[C@@H]4F)n3)n2n1	pIC50	5.73
Cc1ccc(-c2cnc(-c3cccc(-c4cnn(C)c4)c3)nc2NC2CCN(S(C)(=O)=O)CC2)cn1	pIC50	6.00 to 7.00
F[C@H]1CNC[C@@H]1Nc1cccc(-c2cnc3ccc(N4CCC4)nn23)n1	pIC50	5.57
COc1cc2ncc(-c3cccc(N[C@H]4CNCC[C@@H]4F)n3)n2nc1C(C)(O)C(F)(F)F (single isomer, unassigned; slow-eluting)	pIC50	5.50

Please tell me the measured pIC50 for Cn1cc(-c2cccc(-c3ncc(-c4cnn(C)c4)c(NCC4CCC4)n3)c2)cn1 ; system: IRAK1 (Homo sapiens).
6.00 to 7.00

Please tell me the measured pIC50 for CC(=O)NC[C@H]1C[C@@H](Nc2nc(-c3cccc(-c4cnn(C)c4)c3)ncc2-c2cnn(C)c2)C1 ; system: IRAK1 (Homo sapiens).
6.00 to 7.00

Please tell me the measured pIC50 for C=CC(=O)N1CCC[C@@H](C(=O)Nc2ccc(NC(=O)c3cccc(-c4ccn[nH]4)n3)nc2)C1 ; system: IRAK1 (Homo sapiens).
7.90

Please tell me the measured pIC50 for O=C1Nc2nc3ccccc3n2Cc2cc(ccc2O)-c2ccc(=O)n(n2)Cc2cccc1c2 ; system: IRAK1 (Homo sapiens).
> 7.00

Please tell me the measured pIC50 for Cc1nnc(-c2cnc(-c3cccc(-c4cnn(C)c4)c3)nc2NCCN2CCOCC2)s1 ; system: IRAK1 (Homo sapiens).
< 5.30

###

Literature survey of IC50 (system: IRAK1 (Homo sapiens, UniProt P51617)).
Sequence (P51617 whole entry): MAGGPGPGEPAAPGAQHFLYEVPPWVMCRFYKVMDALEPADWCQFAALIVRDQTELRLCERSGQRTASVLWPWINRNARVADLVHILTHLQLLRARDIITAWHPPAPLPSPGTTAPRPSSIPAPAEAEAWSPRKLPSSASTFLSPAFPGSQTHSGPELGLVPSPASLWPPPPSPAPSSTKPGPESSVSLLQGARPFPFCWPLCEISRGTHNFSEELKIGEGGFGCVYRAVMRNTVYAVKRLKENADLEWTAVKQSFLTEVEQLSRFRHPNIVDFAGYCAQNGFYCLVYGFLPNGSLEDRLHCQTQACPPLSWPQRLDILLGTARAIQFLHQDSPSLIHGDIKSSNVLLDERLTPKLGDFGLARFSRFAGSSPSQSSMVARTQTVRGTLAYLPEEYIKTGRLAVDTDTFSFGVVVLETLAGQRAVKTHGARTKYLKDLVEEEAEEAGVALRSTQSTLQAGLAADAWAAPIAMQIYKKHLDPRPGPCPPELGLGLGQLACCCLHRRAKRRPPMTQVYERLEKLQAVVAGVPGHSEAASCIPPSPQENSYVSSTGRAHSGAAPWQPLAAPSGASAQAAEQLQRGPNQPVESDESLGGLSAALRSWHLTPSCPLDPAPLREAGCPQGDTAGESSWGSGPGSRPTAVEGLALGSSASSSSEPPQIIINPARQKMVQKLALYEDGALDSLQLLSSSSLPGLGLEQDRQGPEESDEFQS
Reply with just the number (in nM).

Some solved cases for reference:
MOLECULE	IC50 [nM]
C=CC(=O)N1CCC[C@H](c2nc(-c3ccc(NC(=O)c4cccc(-c5[nH]ncc5Cl)n4)c(F)c3)no2)C1	21.1
CC(C)(O)Cn1cc(-c2ccc3ncc(-c4cccc(N[C@H]5CNC[C@@H]5C(F)(F)F)n4)n3n2)cn1	1850
O=C1CCC(N2C(=O)c3cccc(NCCOCCOCCC(=O)N4CCC(c5cc(NC(=O)c6cccc(-c7ccn[nH]7)n6)n(-c6ccccn6)n5)CC4)c3C2=O)C(=O)N1 (stereo not drawn)	42
FC1(F)CNCC1Nc1cccc(-c2cnc3ccc(-c4cnn(C5CC5)c4)nn23)n1 (stereo not drawn)	678
c1ccc(-n2cc(-c3ccc4ncc(-c5cccc(NC6CCNC6)n5)n4n3)cn2)cc1 (stereo not drawn)	6580

Please tell me the measured IC50 for COc1cc2ncc(-c3nc(N[C@H]4CNCC[C@@H]4F)c(F)cc3F)n2nc1C(C)(C)O ; system: IRAK1 (Homo sapiens, UniProt P51617).
129

Please tell me the measured IC50 for c1cc(NC2CC3(CCNC3)C2)nc(-c2cnc3ccc(-c4cn[nH]c4)nn23)c1 (stereo not drawn) ; system: IRAK1 (Homo sapiens, UniProt P51617).
23

Please tell me the measured IC50 for C=CC(=O)N1CCC[C@H](c2nc(-c3ccc(NC(=O)c4cccc(-c5ccn[nH]5)n4)cn3)no2)C1 ; system: IRAK1 (Homo sapiens, UniProt P51617).
84.3

Please tell me the measured IC50 for C=CC(=O)N[C@H]1CCCC(C(=O)Nc2ccc(NC(=O)c3cccc(-c4ccn[nH]4)n3)nc2)C1 (stereo partly drawn) ; system: IRAK1 (Homo sapiens, UniProt P51617).
189

Please tell me the measured IC50 for COc1cc2ncc(-c3cccc(N[C@@H]4CCNC4)n3)n2nc1C1(C(F)(F)F)CC1 ; system: IRAK1 (Homo sapiens, UniProt P51617).
954
